# Tested on: Escherichia coli ATTC 25922
# Assay type: cell-based
# condition.context: ATTC 25922
Positions of bridges follow the written chain, without caps; N, C: chain ends. Non-standard residues stand in square brackets, D forms with d. Residues, ends and D or L forms follow the SMILES beside them. *: point of attachment. Dab = NCC[C@H](N)C(=O)O; Hexanoyl = CCCCCC(=O)*
reported.endpoint: MIC EC

Query block: Could you share what MIC EC was measured for CCCCCC(=O)N[C@@H](CCN)C(=O)N[C@H](C(=O)N[C@@H](CCN)C(=O)N[C@H]1CSSC[C@H](C(N)=O)NC(=O)[C@H](CCN)NC(=O)[C@H](CCN)NC(=O)[C@H](CC(C)C)NC(=O)[C@@H](Cc2ccccc2)NC(=O)[C@H](CCN)NC1=O)[C@@H](C)O [spB-1] (Hexanoyl-[Dab]T[Dab]C[Dab][dF]L[Dab][Dab][dC]-NH2; disulfide 4-10) , tested on Escherichia coli ATTC 25922?
Result block: > 27 µM
